Data credit: PubChem BioAssay (NCI)

- Measurement protocol: NCI Yeast Anticancer Drug Screen. Data for the sgs1 mgt1 strain (AID 161);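 also: 0% = growth of cultures given vehicle only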
- Run conditions: S. cerevisiae sgs1 mgt1 strain, at 50.0 µM, hits give high values
This is part of a sample that, as a whole, favours compounds with a hit. Of some 79,000 tested, about 15% had one in any assay.
# maps each entry to its growth inhibition
Numeric only. Scale: %

| Molecule | Unit abbrev | growth inhibition |
| --- | --- | --- |
| CC1(C#N)C(C#N)(C#N)C1(C#N)C#N | % | -10.8 |
| CCCCNC(=O)c1cc(S(=O)(=O)n2cc[nH]c2=O)c(SC)cc1Cl | % | 15.8 |
| COc1cc2c(cc1C1=NC(C)(C)CO1)OCO2 | % | -28.9 |

Lookup: Which growth inhibition is reported for this molecule? CC1(O)C2C3C(I)C4C5C3C1C5C42 (stereo unspecified)
Found: 10.1

Lookup: Which growth inhibition is reported for this molecule? CC(=O)N1C(Nc2ccccn2)CCN1c1ccccc1 (stereo unspecified)
Found: -21.4

Lookup: Which growth inhibition is reported for this molecule? CC(=O)Nc1ccc(Nc2nc(=O)[nH]c(=O)[nH]2)cc1
Found: 13.1

Lookup: Which growth inhibition is reported for this molecule? CC(C)CC(O)(CC(C)C)C(CCC(=O)Nc1ccccc1)C(=O)Nc1ccccc1 (stereo unspecified)
Found: 1.9

Lookup: Which growth inhibition is reported for this molecule? Cc1cc(O)ccc1N=Nc1ccc(S(=O)(=O)O)cc1
Found: -10.6

Lookup: Which growth inhibition is reported for this molecule? O=C(O)CCC(NC(=O)CCC(NC(=O)OCc1ccccc1)C(=O)OCc1ccccc1)C(=O)OCc1ccccc1 (stereo unspecified)
Found: -10.6

Lookup: Which growth inhibition is reported for this molecule? CC(C)C(=O)OC1c2cc(OCCN(C)C)ccc2CC1C (stereo unspecified)
Found: -8.3

Lookup: Which growth inhibition is reported for this molecule? Cc1cc(C(C)(C)C)cc(C)c1[N+](=O)[O-]
Found: -17.9

Lookup: Which growth inhibition is reported for this molecule? O=c1[nH]c2ccccc2c(N=Cc2ccccc2)c1-c1ccccc1
Found: -4.6

###

# maps each entry to its growth inhibition
- Measurement protocol: NCI Yeast Anticancer Drug Screen. Data for the cln2 rad14 strain (AID 165);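 also: 0% = growth equal to vehicle treated cultures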
- Run conditions: S. cerevisiae cln2 rad14 strain, at 50.0 µM, hits give high values
About 79,000 compounds went through this panel and 15% of them were active in at least one assay; those are over-represented in the sample as a whole.
Numeric only. Scale: %

| Smi | Quantitative readout |
| --- | --- |
| CCCCCCCCC(C)C | 10.8 |
| O=C(c1cccc([N+](=O)[O-])c1)N1CCOCC1 | -36.4 |

// below: growth inhibition requested for another compound
Lookup: Which growth inhibition is reported for this compound? O=C(Cn1c2c(c3ccccc31)CCCC2)N1CCCC1
Found: 2.75

###

- Measurement protocol: NCI Yeast Anticancer Drug Screen. Data for the sgs1 mgt1 strain (AID 161);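 also: 0% = growth of cultures given vehicle only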
- Run conditions: S. cerevisiae sgs1 mgt1 strain, at 50.0 µM, hits give high values
About 79,000 compounds went through this panel and 15% of them were active in at least one assay; those are over-represented in the sample as a whole.
Property name: growth inhibition (%)
Numeric only. Scale: %

| Molecule | Property name | Quantitative readout |
| --- | --- | --- |
| CCOC(=O)C(=CNc1ccc(NC2=NCC(C)S2)cc1)C(=O)OCC (stereo not given) | growth inhibition | -20.4 |

Lookup: Which growth inhibition is reported for this molecule? O=C(Nc1ccc(C(=O)O)cc1)Nc1cccc(F)c1
Found: 10.2

Lookup: Which growth inhibition is reported for this molecule? COc1cc(OC)c(C(=O)/C=C/c2ccccc2)c(O)c1OC
Found: 20.9

Lookup: Which growth inhibition is reported for this molecule? O=C(CNC(=O)OCc1ccccc1)NCCNCCNC(=O)CNC(=O)OCc1ccccc1
Found: -5.65

###

- Measurement protocol: NCI Yeast Anticancer Drug Screen. Data for the cln2 rad14 strain (AID 165);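 also: 0% = growth equal to vehicle treated cultures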
- Run conditions: S. cerevisiae cln2 rad14 strain, at 50.0 µM, hits give high values
- Protocol: Growth inhibition of yeast strains with defined genetic alterations is measured as a screen for potential anti-cancer activity. Selected strains with alterations in DNA damage repair or cell cycle control were exposed to compounds and growth inhibition was measured relative to vehicle treated controls. The strain used in this assay is cln2 rad14
This is part of a sample that, as a whole, favours compounds with a hit. Of some 79,000 tested, about 15% had one in any assay.
Property name: growth inhibition (%)
Numeric only. Scale: %

// known answers, use as guide
| Compound | Unit abbrev | growth inhibition |
| --- | --- | --- |
| O=C(CCc1ccc(O)c(O)c1)OCCc1ccccc1 | % | 88 |
| SCCc1ccccc1 | % | -14 |
| OCc1cc2ccc3ccccc3c2[nH]1 | % | 2.65 |
| O=C(CCCC(=O)Nc1ccc2[nH]c3ccccc3c(=O)c2c1)Nc1ccc2[nH]c3ccccc3c(=O)c2c1 | % | 20.9 |
| COc1cc2c(cc1OCc1ccccc1)NC(=O)C2 | % | -7.85 |

Lookup: Which growth inhibition is reported for this compound? O=C(Nc1ccc(Br)cc1)Nc1ccc(Br)cc1
Found: -36.4

Lookup: Which growth inhibition is reported for this compound? CS(=O)(=O)OC1COCOC1C1OCOCC1OS(C)(=O)=O (stereo not given)
Found: -10.4

Lookup: Which growth inhibition is reported for this compound? O=C(N/N=C(/c1nc2ccc(Cl)cc2[nH]c1=O)C(O)c1ccc(Cl)cc1Cl)c1ccncc1 (stereo not given)
Found: -34.6

###

- Measurement protocol: NCI Yeast Anticancer Drug Screen. Data for the mlh1 rad18 strain (AID 175)
- Run conditions: S. cerevisiae mlh1 rad18 strain growth inhibition; at 50.0 µM; hits give high values
About 79,000 compounds went through this panel and 15% of them were active in at least one assay; those are over-represented in the sample as a whole. Active and inactive are the calls of the source. Rule as the data show it: active = growth inhibition above about 70%; inactive = the rest.
Property name: growth inhibition

| Smi | growth inhibition |
| --- | --- |
| O=c1c2ccccc2nc(-c2ccccc2)n1/N=C/c1cccnc1 | 41.2% (inactive) |
| CCCCCCCCCCC/C(C)=N/Nc1ccc([N+](=O)[O-])cc1[N+](=O)[O-] | -13% (inactive) |

// below: growth inhibition requested for another molecule
Lookup: Which growth inhibition is reported for this molecule? CCO/C=C(/C#N)C(=O)OCC
Found: 0.85% (inactive)

###

# maps each entry to its growth inhibition
- Measurement protocol: NCI Yeast Anticancer Drug Screen. Data for the mlh1 rad18 strain (AID 175)
- Run conditions: S. cerevisiae mlh1 rad18 strain growth inhibition; at 50.0 µM; hits give high values
Compounds without any hit were thinned out: in the full panel of roughly 79,000, 15% have a hit.
Numeric only. Scale: %

| Compound | growth inhibition, % |
| --- | --- |
| c1cc(CNCCN2CCNCC2)ccn1 | 16.8 |

// below: growth inhibition requested for another compound
Lookup: Which growth inhibition is reported for this compound? c1ccc(-c2nn(-c3ccccc3)[n+](-c3ccccc3)n2)cc1
Found: 4.35

###

- Measurement protocol: NCI Yeast Anticancer Drug Screen. Data for the mec2-1 strain (AID 157)
- Run conditions: S. cerevisiae mec2-1 strain, at 50.0 µM
The panel holds about 79,000 compounds, 15% with a hit somewhere; the sample as a whole holds those more often. Activity calls are given as the source filed them. No stated cut-off is given here; in the data, active means growth inhibition above about 70%; inactive means the rest.
A correct response names exactly one class from 1 (active), 0 (inactive)

Completed entries (count: 5):
| Compound | Class name |
| --- | --- |
| C=C(C)CNCCN | 0 |
| O=C(O)C1C2C=CC(O2)C1C(=O)Nc1ccccc1 (stereo not given) | 0 |
| CCCCOCCOCCOS(=O)(=O)c1ccc(C)cc1 | 0 |
| N=c1oc2cc(O)ccc2cc1C(=O)NCc1ccccc1 | 0 |
| C/C(=N\NC(=O)C(N)=O)c1c(O)cc(C)oc1=O | 0 |

Lookup: Check the results log: what was the call for CCCCNC(C)=O ?
Found: 0

Lookup: Check the results log: what was the call for ON1c2ccccc2-c2ccccc2C1(c1ccccc1)c1ccccc1 ?
Found: 1

Lookup: Check the results log: what was the call for CC(C)(C)Nc1ccc([N+](=O)[O-])cc1[N+](=O)[O-] ?
Found: 0

Lookup: Check the results log: what was the call for O=C1CC(NC(=O)C(F)(F)F)c2c(Br)sc(N3CCNCC3)c21 (stereo not given) ?
Found: 0

Lookup: Check the results log: what was the call for O=c1oc(-c2ccc(Cl)cc2Cl)nc2cc(Cl)ccc12 ?
Found: 0

Lookup: Check the results log: what was the call for CCN(CC)c1ccc(N=C2C=C(C(=O)Nc3ccc(S(C)(=O)=O)cc3)C(=O)c3ccccc32)c(C)c1 ?
Found: 0

Lookup: Check the results log: what was the call for CN1CC(O)CN(C)C1=S ?
Found: 0

Lookup: Check the results log: what was the call for O=C1CC2CC1C1CC(Br)C(Br)C21 (stereo not given) ?
Found: 0

Lookup: Check the results log: what was the call for NC(=O)N/N=C1/C=C2CCCCC2CC1 (stereo not given) ?
Found: 0

Lookup: Check the results log: what was the call for Cn1cc(C(=O)C2CCCCC2)ccc1=O ?
Found: 0

Lookup: Check the results log: what was the call for C=CCNC(=O)C1C2C=CC(C2)C1C(=O)NCC=C (stereo not given) ?
Found: 0

Lookup: Check the results log: what was the call for CCCCCCCCCCCCCCCCCCNC1=C(C)C(=O)C(NCCCCCCCCCCCCCCCCCC)=C(OCC)C1=O ?
Found: 0

Lookup: Check the results log: what was the call for Oc1ccccc1/C=N/c1nc(-c2ccccc2)cs1.[Co].[O-]c1ccccc1/C=N/c1nc(-c2ccccc2)cs1 ?
Found: 0

Lookup: Check the results log: what was the call for CN(C)S(=O)(=O)c1nc2nc[nH]c(=O)c2[nH]1 ?
Found: 0

Lookup: Check the results log: what was the call for CC(C)OC(=O)N1CCCC1 ?
Found: 0

Lookup: Check the results log: what was the call for COC1(C)C=NCC(C)(C)NC(=O)C(C)(OC)C=NCC(C)(C)NC1=O (stereo not given) ?
Found: 0

Lookup: Check the results log: what was the call for CC(=O)NC(Cc1c[nH]c2ccccc12)C(=O)Oc1ccc([N+](=O)[O-])cc1 (stereo not given) ?
Found: 0

Lookup: Check the results log: what was the call for C[C@@]1(N2C(=O)OC(c3ccccc3)C2=O)C(=O)N2CCS[C@@]21c1ccccc1 (stereo not given in full) ?
Found: 0
